Target chain: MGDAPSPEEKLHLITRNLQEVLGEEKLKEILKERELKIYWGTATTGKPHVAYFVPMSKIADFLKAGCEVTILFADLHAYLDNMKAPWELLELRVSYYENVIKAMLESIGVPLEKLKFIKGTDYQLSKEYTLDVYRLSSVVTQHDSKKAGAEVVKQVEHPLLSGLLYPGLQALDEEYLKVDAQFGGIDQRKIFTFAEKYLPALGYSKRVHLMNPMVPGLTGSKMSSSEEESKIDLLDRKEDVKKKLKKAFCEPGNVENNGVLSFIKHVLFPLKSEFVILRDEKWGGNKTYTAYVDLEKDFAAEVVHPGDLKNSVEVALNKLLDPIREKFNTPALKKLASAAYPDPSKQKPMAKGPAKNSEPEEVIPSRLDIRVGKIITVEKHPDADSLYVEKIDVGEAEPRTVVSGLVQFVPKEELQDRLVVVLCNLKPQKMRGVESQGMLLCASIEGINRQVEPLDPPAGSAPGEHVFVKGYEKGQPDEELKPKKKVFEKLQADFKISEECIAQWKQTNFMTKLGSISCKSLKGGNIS
REPORTED_PROPERTY: Ki (µM)
Report as a plain number; the unit µM is understood.

Value of measured Ki for the entry Oc1ccc(/C=C/c2cc(O)cc(O)c2)cc1 : 22

Source: paper PMC4368482
